system: Rattus norvegicus; test: Antiinflammatory activity in Wistar albino rat assessed as reduction in carrageenan-induced paw edema at 50 mg/kg, po administered 30 mins prior to carrageenan challenge measured after 4 hrs by plethysmometer; type: functional; set-up: scale not given: the % may be the effect or the level left
Label yes (1) when Activity >= 50%; otherwise no (0).

Threshold query (Activity >= 50%) on Cc1cc(C)nc(N2N=C(c3ccccc3)C[C@@]2(O)C(F)(F)F)n1 no (0)

Next compound up: Cc1cc(C)nc(N2N=C(c3ccc(F)cc3)C[C@@]2(O)C(F)(F)F)n1 no (0)

Next compound up: Cc1cc(C)nc(-n2nc(C(F)(F)F)cc2-c2ccc(Cl)cc2)n1 yes (1)

Next compound up: Cc1cc(C)nc(-n2nc(C(F)(F)F)cc2C(F)(F)F)n1 no (0)

Next compound up: Cc1ccc(-c2cc(C(F)(F)F)nn2-c2nc(C)cc(C)n2)cc1 yes (1)

Next compound up: Cc1cc(C)nc(-n2nc(-c3ccccc3)cc2C(F)(F)F)n1 yes (1)

Next compound up: Cc1cc(C)nc(-n2nc(-c3cccs3)cc2C(F)(F)F)n1 no (0)

Next compound up: Cc1cc(C)nc(-n2nc(-c3ccc(Cl)cc3)cc2C(F)(F)F)n1 yes (1)

Next compound up: COc1ccc(-c2cc(C(F)(F)F)nn2-c2nc(C)cc(C)n2)cc1 yes (1)

Next compound up: Cc1cc(C)nc(N2N=C(C(F)(F)F)C[C@@]2(O)C(F)(F)F)n1 no (0)

Next compound up: Cc1cc(C)nc(-n2nc(C(F)(F)F)cc2-c2ccc(F)cc2)n1 yes (1)

Next compound up: Cc1cc(C)nc(N2N=C(c3ccc(Cl)cc3)C[C@@]2(O)C(F)(F)F)n1 no (0)

###

tested on: Rattus norvegicus; test: Antiinflammatory activity in Wistar albino rat assessed as reduction in carrageenan-induced paw edema at 50 mg/kg, po administered 30 mins prior to carrageenan challenge measured after 1 hr by plethysmometer; type: functional; set-up: scale not given: the % may be the effect or the level left
Provide the reported Activity of each item.
Numeric only. Scale: %

Param readout = Activity; param system = Rattus norvegicus; param query = Cc1cc(C)nc(-n2nc(-c3cccs3)cc2C(F)(F)F)n1 ; response: value 8.6

Next compound up: Cc1cc(C)nc(-n2nc(C(F)(F)F)cc2C(F)(F)F)n1 34

Next compound up: Cc1cc(C)nc(-n2nc(C(F)(F)F)cc2-c2ccc(F)cc2)n1 29

Next compound up: Cc1ccc(-c2cc(C(F)(F)F)nn2-c2nc(C)cc(C)n2)cc1 48

Next compound up: COc1ccc(-c2cc(C(F)(F)F)nn2-c2nc(C)cc(C)n2)cc1 56

Next compound up: Cc1cc(C)nc(-n2nc(C(F)(F)F)cc2-c2ccc(Cl)cc2)n1 55

###

system: Rattus norvegicus; test: Antiinflammatory activity in Wistar albino rat assessed as reduction in carrageenan-induced paw edema at 50 mg/kg, po administered 30 mins prior to carrageenan challenge measured after 1 hr by plethysmometer; assay type: functional; set-up: scale not given: the % may be the effect or the level left
Label y when Activity >= 40%; otherwise n.

Threshold query (Activity >= 40%) on Cc1cc(C)nc(-n2nc(C(F)(F)F)cc2-c2ccccc2)n1 n

Next molecule up: Cc1cc(C)nc(N2N=C(C(F)(F)F)C[C@@]2(O)C(F)(F)F)n1 y

Next molecule up: Cc1cc(C)nc(N2N=C(c3ccc(F)cc3)C[C@@]2(O)C(F)(F)F)n1 y

Next molecule up: Cc1ccc(C2=NN(c3nc(C)cc(C)n3)[C@](O)(C(F)(F)F)C2)cc1 n

Next molecule up: Cc1cc(C)nc(N2N=C(c3ccccc3)C[C@@]2(O)C(F)(F)F)n1 y

Next molecule up: Cc1cc(C)nc(-n2nc(-c3ccc(Cl)cc3)cc2C(F)(F)F)n1 n

Next molecule up: Cc1cc(C)nc(N2N=C(c3ccc(Cl)cc3)C[C@@]2(O)C(F)(F)F)n1 n

Next molecule up: Cc1cc(C)nc(-n2nc(-c3ccccc3)cc2C(F)(F)F)n1 n

Next molecule up: Cc1cc(C)nc(-n2nc(-c3ccc(F)cc3)cc2C(F)(F)F)n1 n

###

Provide the reported Activity of each item.
system: Rattus norvegicus; assay: Antiinflammatory activity in Wistar albino rat assessed as reduction in carrageenan-induced paw edema at 50 mg/kg, po administered 30 mins prior to carrageenan challenge measured after 4 hrs by plethysmometer; format: functional; parameters: scale not given: the % may be the effect or the level left
Numeric only. Scale: %

GET /values?readout=Activity&item= Cc1cc(C)nc(-n2nc(C(F)(F)F)cc2-c2ccccc2)n1 51

Next compound up: Cc1cc(C)nc(-n2nc(-c3ccc(F)cc3)cc2C(F)(F)F)n1 49

Next compound up: Cc1ccc(C2=NN(c3nc(C)cc(C)n3)[C@](O)(C(F)(F)F)C2)cc1 50
